Experiment: Oral bioavailability in Beagle dogs (plasma concentration of relebactam)
Assay type: in vivo
Conditions: dog, male Beagle dogs, IV bolus, nominal dose 10.0 mg/kg (administered 9.88 mg/kg), mean
OUTCOME MEASURE: AUC(0-inf) (ng·h/mL)
Give the quantity in ng·h/mL, number only.

Lab book: AUC(0-inf) of O=C(NC1CCNCC1)[C@@H]1CC[C@@H]2CN1C(=O)N2OS(=O)(=O)O [relebactam] noted as 29400
